Measured AbsAC1 (concentration giving Tm-shift threshold 1.0) accompanies every entry in the list below.
- subjectOfTest: Fibroblast growth factor 22 (Homo sapiens)
- testDetails: FGF22 ligand-induced thermal stabilization – biophysical, thermal shift, cherry-pick, FGF22 synaptogenesis inhibitor project, dose response (AID 687022)
- cond: recombinant FGF22 thermal shift, SYPRO orange melting

These solved cases illustrate the format of a correct answer.
compound: COC(=O)C[C@H]1CC[C@@H]2[C@@H](COc3ccc(NC(=O)Nc4cccc(C#N)c4)cc3C(=O)N2C)O1
result: 7.79 µM
//
compound: O=C(Nc1nc(-c2ccccn2)cs1)c1cc2ccccc2o1
result: 16.1 µM
//
compound: O=C(CCc1c[nH]c2ccccc12)Nc1ccc(Nc2cccnc2)cc1
result: 4.36 µM
//
compound: Nc1cccc(-c2nc3ccc(C(=O)c4ccccc4)cc3[nH]2)c1
result: 1.15 µM
//
compound: COc1cc2cc(NC(C)=O)cc(NCc3ccccc3)c2cc1OC
result: 8.13 µM

Now for the compound whose AbsAC1 (concentration giving Tm-shift threshold 1.0) we want.
**Query** Look up AbsAC1 (concentration giving Tm-shift threshold 1.0): O=C(N/N=C/c1ccc([N+](=O)[O-])cc1)c1c[nH]c2ccccc12
**Result** 20 µM
